Hello, the source for this data is the supplement of paper PMC11208160, in case you need it.

Provide the recorded recombinant UMI read abundance (log10) for the entries that follow.
# method: recombinant UMI read abundance after kanamycin selection (control-corrected) (log10(CPM+1)); higher = more efficient recombination; extreme values may be limits of the assay; sequences stand for … in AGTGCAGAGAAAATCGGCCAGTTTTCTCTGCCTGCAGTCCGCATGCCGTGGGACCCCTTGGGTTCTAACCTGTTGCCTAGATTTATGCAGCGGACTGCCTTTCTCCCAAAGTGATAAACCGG…AGGTTGGTTTCACT; site = the 11-nt donor;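 further: IS621 bridge recombinase in Escherichia coli cells against a fixed T5 target plasmid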
Give bare numbers.

Worked examples, 6 sequences total:
# sequence.input, endpoint.value
data = [
    ("TAGGTAGCATGGACCGGTTTTCCCGGTAATCCGTATTTGAA (site TAGGTAGCTTT)", 1.67),
    ("TTAATTCCATGGACCGGTTTTCCCGGTAATCCGTATTTGTG (site TTAATTCCTCA)", 0.4),
    ("TTGGAGGCATGGACCGGTTTTCCCGGTAATCCGTATTTGTG (site GTGGAGGCTCA)", 0.0131),
    ("CCTAGTGCATGGACCGGTTTTCCCGGTAATCCGTATTTGGT (site TCTAGTGCTAC)", 0.0125),
    ("ATGTGGGCATGGACCGGTTTTCCCGGTAATCCGTATTTGGC (site ATGTTGGCTGC)", 0.0921),
    ("AATGTGTCATGGACCGGTTTTCCCGGTAATCCGTATTTGAA (site AATGTGTCTGT)", 0),
]

Look at each sequence and report its recombinant UMI read abundance (log10).
1. TCGAATACATGGACCGGTTTTCCCGGTAATCCGTATTTGCA (site TAGAATACTTG)
2. ACCTAGCCATGGACCGGTTTTCCCGGTAATCCGTATTTGCC (site CCCTAGCCTGG)
3. TACTAGACATGGACCGGTTTTCCCGGTAATCCGTATTTGCT (site TACTAGACTAG)
4. AGAAAGGCATGGACCGGTTTTCCCGGTAATCCGTATTTGAT (site AGAAAGGCTAT)
5. ACAGTATCATGGACCGGTTTTCCCGGTAATCCGTATTTGCA (site ACAGTATCTGG)
6. TCCTTCTCATGGACCGGTTTTCCCGGTAATCCGTATTTGGG (site GCCTTCTCTCC)
7. CCGTTTACATGGACCGGTTTTCCCGGTAATCCGTATTTGCT (site CGGTTTACTAG)

[out]
1. 0.211
2. 0
3. 1.84
4. 2.28
5. 2.13
6. 0.104
7. 0

Look at each sequence and report its recombinant UMI read abundance (log10).
1. GTGCATGCATGGACCGGTTTTCCCGGTAATCCGTATTTGTT (site GTGCATGCTAG)
2. AATGTGTCATGGACCGGTTTTCCCGGTAATCCGTATTTGAC (site AATGTGTCTGT)
3. CCCCGTCCATGGACCGGTTTTCCCGGTAATCCGTATTTGCA (site CCCTGTCCTTG)
4. CCAGGCGCATGGACCGGTTTTCCCGGTAATCCGTATTTGAT (site CCAGGTGCTAT)
5. ACATGCACATGGACCGGTTTTCCCGGTAATCCGTATTTGTC (site ACATGCACTGA)
6. GCTACTGCATGGACCGGTTTTCCCGGTAATCCGTATTTGTC (site GCTACTGCTGG)

[out]
1. 1.48
2. 1.77
3. 0.00689
4. 0.707
5. 2.06
6. 0.571
